Tested on: S. aureus
Assay name: Antibacterial susceptibility testing: IC90 determination with 10% human serum (STA + 10% HS)
Assay type: cell-based
Experimental parameters: Staphylococcus aureus; S. aureus with human serum at final concentration of 10%; read-out: STA + 10% HS (361.169) IC90
Binary label based on IC90 with cut-off 3 µg/mL: below gives y, not below gives n.

Compound	Classification
COc1cccc(C2=CCN(C(=O)/C=C/c3cnc4c(c3)CCC(=O)N4)CCC2)c1 [Co. No. 6]	n
O=C1CCc2cc(/C=C/C(=O)N3CC=C(Cc4ccccc4)CCC3)cnc2N1 [Co. No. 5]	n
O=C1CCc2cc(/C=C/C(=O)N3CCC=C(c4ccc(Cl)cc4)CC3)cnc2N1 [Co. No. 24]	n
O=C1CCc2cc(/C=C/C(=O)N3CCCC(Cc4ccccc4)CC3)cnc2N1 (centres unmarked) [Co. No. 3]	n
O=C1CCc2cc(/C=C/C(=O)N3CCC=C(c4cccc(Cl)c4)CC3)cnc2N1 [Co. No. 19]	y
COc1ccc(C2=CCCN(C(=O)/C=C/c3cnc4c(c3)CCC(=O)N4)CC2)cc1 [Co. No. 26]	y
O=C1CCc2cc(/C=C/C(=O)N3CCCN(c4ccccc4)CC3)cnc2N1 [Co. No. 11]	n

Cited source for all entries: patent US9394295B2
